assayed-target: T1, hu-IL-36β (human IL-36β, N-terminally truncated active form R5-E157) (human)
T1 chain: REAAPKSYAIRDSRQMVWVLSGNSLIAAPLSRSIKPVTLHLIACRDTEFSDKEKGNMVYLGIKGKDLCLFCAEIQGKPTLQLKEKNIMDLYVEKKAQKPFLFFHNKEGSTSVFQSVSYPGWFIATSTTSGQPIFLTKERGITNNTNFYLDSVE
assay-notes: cell-based or functional assay
endpoint-label: IC50, IL-36-stimulated IL-8 secretion by HaCat cells (nM)
Numbers only here, please. The scale is nM.

Endpoint output: IC50, IL-36-stimulated IL-8 secretion by HaCat cells of mAb6 Fab (Fab, V domains shown) VH: ELQLQESGPGLVKPSETLSLTCTVSGGSITSSNYYWGWIRQPPGKGLEWIGSIDYTGSTYYNPSLKSRVTISVDTSKNQFSLKLSSVTAADTAVYYCARGKYYETYLGFDVWGQGTLVTVSS VL: ESVLTQPPSVSGAPGQRVTISCTGSSSNIGAGYDVHWYQQLPGTAPKLLIYGNTNRPSGVPDRFSGSKSGTSASLAITGLQAEDEADYYCQSYDISLSGWVFGGGTKLTVL . Value? 0.15

Endpoint output: IC50, IL-36-stimulated IL-8 secretion by HaCat cells of mAb6_2.7 Fab (Fab, V domains shown, Recombinant Fab with 8xHis tag (Expi293F)) VH: ELQLQESGPGLVKPSETLSLTCTVSGGSITASNTYWGWIRQPPGKGLEWIGSIDYTGSTYYNPSLKSRVTISVDTSKNQFSLKLSSVTAADTAVYYCATGKYYETYLGFDVWGQGTLVTVSS VL: ESVLTQPPSVSGAPGQRVTISCTGSSSNIGAHYDVHWYQQLPGTAPKLLIYGNDNRPSGVPDRFSGSKSGTSASLAITGLQAEDEADYYCQSYDYSLSGYVFGGGTKLTVL . Value? 0.2

Endpoint output: IC50, IL-36-stimulated IL-8 secretion by HaCat cells of mAb6_2.5 Fab (Fab, V domains shown, Recombinant Fab with 8xHis tag (Expi293F)) VH: ELQLQESGPGLVKPSETLSLTCTVSGGSITASNYYWGWIRQPPGKGLEWIGSIDYTGSTYYEPSLKSRVTISVDTSKNQFSLKLSSVTAADTAVYYCATGSYYETYLGFDVWGQGTLVTVSS VL: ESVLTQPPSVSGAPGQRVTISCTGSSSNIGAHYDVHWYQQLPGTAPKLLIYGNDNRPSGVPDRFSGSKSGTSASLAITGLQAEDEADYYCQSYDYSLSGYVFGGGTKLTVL . Value? 0.2

Endpoint output: IC50, IL-36-stimulated IL-8 secretion by HaCat cells of mAb6_2.4 Fab (Fab, V domains shown, Purified Fab) VH: ELQLQESGPGLVKPSETLSLTCTVSGGSITASNYYWGWIRQPPGKGLEWIGSIDYTGSTYYNPSLKSRVTISVDTSKNQFSLKLSSVTAADTAVYYCATGKYYETYLGFDVWGQGTLVTVSS VL: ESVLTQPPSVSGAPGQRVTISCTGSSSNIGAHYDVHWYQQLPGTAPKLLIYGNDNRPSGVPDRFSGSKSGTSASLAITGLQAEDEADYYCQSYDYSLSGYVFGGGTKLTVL . Value? 0.13
